Each recorded value in this set is attributed to ChEMBL document CHEMBL2384907.

molecular target: Toll-like receptor 4 (Mus musculus); assay: Activation of TLR4 in C57BL/6 mouse BMDC cells assessed as AUC of IP10 release at 5 uM after 18 hrs by ELISA relative to N-cyclohexyl-2-(4-oxo-3-phenyl-4,5-dihydro-3H-pyrimido[5,4-b]indol-2-ylthio)acetamide; type: cell-based
quantity_measured: Activity

Return Activity for the following molecule: CN(C(=O)CSc1nc2c3ccccc3n(C)c2c(=O)n1-c1ccccc1)C1CCCCC1
< 1%

Dear colleague, please send me the reported Activity for O=C(CSc1nc2c([nH]c3ccccc32)c(=O)n1-c1ccc2ccccc2c1)NC1CCCCC1 when you can.
< 1%

// Input: O=C(CSc1nc2c([nH]c3ccccc32)c(=O)n1-c1ccccc1)Nc1ccc2cn[nH]c2c1 . Output its Activity only.
< 1%

Note down Activity recorded for CC(C)(C)NC(=O)CSc1nc2c([nH]c3ccccc32)c(=O)n1-c1ccccc1
< 1%

Determine from records and report Activity for O=C(CSc1nc2c([nH]c3ccccc32)c(=O)n1-c1ccccc1)NC1CCNCC1
< 1%

Look up Activity of CCCCCCCCCCCCn1c2ccccc2c2nc(SCC(=O)NC3CCCCC3)n(-c3ccccc3)c(=O)c21 and report it.
< 1%

Answer with reported Activity of CCCC(C)NC(=O)CSc1nc2c([nH]c3ccccc32)c(=O)n1-c1ccccc1 (stereo not given)
55%

Quickly give me recorded Activity for Cc1cccc(NC(=O)CSc2nc3c([nH]c4ccccc43)c(=O)n2-c2ccccc2)c1
55%

Look up Activity of O=C(CSc1nc2c([nH]c3ccccc32)c(=O)n1-c1ccccc1)Nc1ccc2ccccc2c1 and report it.
< 1%

Give the measured Activity for O=C(CSc1nc2c([nH]c3ccccc32)c(=O)n1-c1ccccc1)Nc1nccs1
< 1%

Please report Activity for the following molecule: CCCCCn1c2ccccc2c2nc(SCC(=O)NC3CCCCC3)n(-c3ccccc3)c(=O)c21
< 1%

Tell me Activity reported for O=C(CSc1nc2c([nH]c3ccccc32)c(=O)n1CCc1ccccc1)NC1CCCCC1
< 1%

Report Activity, nothing else, for this molecule: CCNC(=O)CSc1nc2c([nH]c3ccccc32)c(=O)n1-c1ccccc1
< 1%

Return value of Activity for input Cc1ccc(-n2c(SCC(=O)NC3CCCCC3)nc3c([nH]c4ccccc43)c2=O)cc1 , no commentary.
< 1%

State, in one line, measured Activity of CCCCCCCC/C=C\CCCCCCCC(=O)OC[C@H](COP(=O)(O)OCCNC(=O)CSc1nc2c([nH]c3ccccc32)c(=O)n1-c1ccccc1)OC(=O)CCCCCCC/C=C\CCCCCCCC
< 1%
